# target-or-system: E. coli β clamp (β subunit of DNA polymerase III, dnaN gene product) (E. coli) (UniProt P0A988)
# Sequence (P0A988 whole entry): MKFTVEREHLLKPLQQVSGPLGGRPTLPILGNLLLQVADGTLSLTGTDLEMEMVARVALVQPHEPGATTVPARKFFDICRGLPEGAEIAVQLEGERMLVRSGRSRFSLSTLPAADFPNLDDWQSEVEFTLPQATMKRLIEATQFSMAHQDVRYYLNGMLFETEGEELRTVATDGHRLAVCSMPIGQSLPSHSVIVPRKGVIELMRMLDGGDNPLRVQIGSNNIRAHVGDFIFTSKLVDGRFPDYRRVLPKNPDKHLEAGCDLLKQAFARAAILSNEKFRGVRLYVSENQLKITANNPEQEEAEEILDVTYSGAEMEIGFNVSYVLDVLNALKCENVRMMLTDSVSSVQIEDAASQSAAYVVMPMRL
# procedure-summary: ITC, peptide 400 µM into β ring 30 µM, 25 °C
measured-quantity: pKd
pKd field: float, defined as -log10 of concentration (mol/L).

### Prompt Reported pKd for P3 (RQLVLF) (peptide; other documents disagree on this pair) : what is it?
### Response 5.55

Numbers sourced from patent US20140287989A1.
